For each entry below, report its pIC50 value.
- Test system: HeLa nuclear extract HDAC1/2
- ASSAY SUMMARY: Fluor de Lys HDAC inhibition, HeLa nuclear extract
- Format: biochemical, human
- DETAILS: HeLa nuclear extract; average of three independent experiments; Table 4; read-out: HDAC ½
Answers are plain numbers, as −log10 of the molar value.

Before answering, review these 9 worked examples.
MOLECULE: CC[C@H]1OC(=O)[C@H](C)[C@@H](O)[C@H](C)[C@@H](O[C@@H]2O[C@H](C)C[C@H](N(C)Cc3ccc(-c4cn(CCCCCCC(=O)NO)nn4)cc3)[C@H]2O)[C@](C)(OC)C[C@@H](C)C(=O)[C@H](C)[C@@H](O)[C@]1(C)O
pIC50: 8.73
--
MOLECULE: CC[C@H]1OC(=O)[C@H](C)[C@@H](O)[C@H](C)[C@@H](O[C@@H]2O[C@H](C)C[C@H](N(C)Cc3ccc(-c4cn(CCCCCC(=O)NO)nn4)cc3)[C@H]2O)[C@](C)(OC)C[C@@H](C)C(=O)[C@H](C)[C@@H](O)[C@]1(C)O
pIC50: 7.35
--
MOLECULE: CC[C@H]1OC(=O)[C@H](C)[C@@H](O)[C@H](C)[C@@H](O[C@@H]2O[C@H](C)C[C@H](N(C)Cc3ccc(-c4cn(CCCCCCCC(=O)NO)nn4)cc3)[C@H]2O)[C@](C)(OC)C[C@@H](C)C(=O)[C@H](C)[C@@H](O)[C@]1(C)O
pIC50: 6.91
--
MOLECULE: CC[C@H]1OC(=O)[C@H](C)[C@@H](O[C@H]2C[C@@](C)(OC)[C@@H](O)[C@H](C)O2)[C@H](C)[C@@H](O[C@@H]2O[C@H](C)C[C@H](N(C)Cc3ccc(-c4cn(CCCCCCCC(=O)NO)nn4)cc3)[C@H]2O)[C@](C)(OC)C[C@@H](C)C(=O)[C@H](C)[C@@H](O)[C@]1(C)O
pIC50: 7.26
--
MOLECULE: CC[C@H]1OC(=O)[C@H](C)[C@@H](O)[C@H](C)[C@@H](O[C@@H]2O[C@H](C)C[C@H](N(C)Cc3ccc(NC(=O)CCCCCCC(=O)NO)cc3)[C@H]2O)[C@](C)(O)C[C@@H](C)CN(C)[C@H](C)[C@@H](O)[C@]1(C)O
pIC50: 6.96
--
MOLECULE: CC[C@H]1OC(=O)[C@H](C)[C@@H](O[C@H]2C[C@@](C)(OC)[C@@H](O)[C@H](C)O2)[C@H](C)[C@@H](O[C@@H]2O[C@H](C)C[C@H](N(C)Cc3ccc(-c4cn(CCCCCC(=O)NO)nn4)cc3)[C@H]2O)[C@](C)(OC)C[C@@H](C)C(=O)[C@H](C)[C@@H](O)[C@]1(C)O
pIC50: 7.43
--
MOLECULE: CC[C@H]1OC(=O)[C@H](C)[C@@H](O[C@H]2C[C@@](C)(OC)[C@@H](O)[C@H](C)O2)[C@H](C)[C@@H](O[C@@H]2O[C@H](C)C[C@H](N(C)Cc3ccc(-c4cn(CCCCCCCCCC(=O)NO)nn4)cc3)[C@H]2O)[C@](C)(OC)C[C@@H](C)C(=O)[C@H](C)[C@@H](O)[C@]1(C)O
pIC50: 6.65
--
MOLECULE: CC[C@H]1OC(=O)[C@H](C)[C@@H](O[C@H]2C[C@@](C)(OC)[C@@H](O)[C@H](C)O2)[C@H](C)[C@@H](O[C@@H]2O[C@H](C)C[C@H](N(C)Cc3ccc(NC(=O)CCCCCCC(=O)NO)cc3)[C@H]2O)[C@](C)(O)C[C@@H](C)CN(C)[C@H](C)[C@@H](O)[C@]1(C)O [Compound 36, Azithromycin-arylalkyl hydroxamic acid]
pIC50: 6.97
--
MOLECULE: CC[C@H]1OC(=O)[C@H](C)[C@@H](O[C@H]2C[C@@](C)(OC)[C@@H](O)[C@H](C)O2)[C@H](C)[C@@H](O[C@@H]2O[C@H](C)C[C@H](N(C)Cc3ccc(-c4cn(CCCCCCCCC(=O)NO)nn4)cc3)[C@H]2O)[C@](C)(OC)C[C@@H](C)C(=O)[C@H](C)[C@@H](O)[C@]1(C)O
pIC50: 6.77

Indicate the recorded pIC50 value for this molecule: CC[C@H]1OC(=O)[C@H](C)[C@@H](O[C@H]2C[C@@](C)(OC)[C@@H](O)[C@H](C)O2)[C@H](C)[C@@H](O[C@@H]2O[C@H](C)C[C@H](N(C)Cc3ccc(-c4cn(CCCCCCC(=O)NO)nn4)cc3)[C@H]2O)[C@](C)(OC)C[C@@H](C)C(=O)[C@H](C)[C@@H](O)[C@]1(C)O
8.39

----------
- TGT: HDAC8 (Homo sapiens (Human))
- Sequence (Q9BY41 whole entry): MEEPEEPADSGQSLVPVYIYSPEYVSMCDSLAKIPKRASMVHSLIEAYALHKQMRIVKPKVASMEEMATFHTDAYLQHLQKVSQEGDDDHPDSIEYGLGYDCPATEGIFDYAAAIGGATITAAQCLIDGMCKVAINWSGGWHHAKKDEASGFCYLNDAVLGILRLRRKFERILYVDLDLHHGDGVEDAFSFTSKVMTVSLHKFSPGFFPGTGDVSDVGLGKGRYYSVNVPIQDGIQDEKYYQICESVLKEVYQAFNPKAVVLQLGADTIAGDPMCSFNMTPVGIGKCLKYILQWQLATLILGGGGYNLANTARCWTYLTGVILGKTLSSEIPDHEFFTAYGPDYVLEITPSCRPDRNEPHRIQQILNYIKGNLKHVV
- ASSAY SUMMARY: SAMDI mass spectrometry HDAC inhibition assay
- Type: biochemical
- DETAILS: at 10 μM, given if the IC50 was above 10 μM
For each entry below, report its inhibition at 10 µM value.
Give bare numbers, in %.

Before answering, review these 3 worked examples.
MOLECULE: N#Cc1cccc(-c2ccc(Cn3cccc(O)c3=O)cc2)c1 [Compound 148b]
UOM: %
RESULT NUMBER: 9
--
MOLECULE: Cc1ccccc1-c1cn(CCCCCn2cccc(O)c2=O)nn1 [Compound 166c]
UOM: %
RESULT NUMBER: 4
--
MOLECULE: CN(C)c1ccc(-n2cc(Cn3cccc(O)c3=O)nn2)cc1 [Compound 152b]
UOM: %
RESULT NUMBER: 8

Dear colleague, could you send me inhibition at 10 µM for each of the items below? Thanks.
1. CN(C)c1ccc(-c2ccc(Cn3cccc(O)c3=O)cc2)cn1 [Compound 148h]
2. CN(C)c1ccc(-c2cn(CCCCCn3cccc(O)c3=O)nn2)cc1 [Compound 166f]
3. Cc1ccc(-c2cn(CCCCCn3cccc(O)c3=O)nn2)cc1 [Compound 166a]
4. O=c1c(O)cccn1Cc1cn(-c2ccccc2)nn1 [Compound 152a]

[37, 28, 15, 17]

Dear colleague, could you send me inhibition at 10 µM for each of the items below? Thanks.
1. N#Cc1ccc(-c2cn(CCCCCn3cccc(O)c3=O)nn2)cc1 [Compound 166d]
2. O=c1c(O)cccn1Cc1ccc(-c2ccncc2)cc1 [Compound 148i]
3. Oc1cccn(CCn2cc(-c3ccccc3)nn2)c1=S [Compound 161]

1: 26; 2: 16; 3: 56

----------
- TGT: HDAC8 (Homo sapiens (Human))
- ASSAY SUMMARY: Fluor de Lys HDAC8 inhibition
- Type: biochemical
- DETAILS: ratio of IC50 HDAC8 to nuclear extract
For each entry below, report its HDAC8: Nuclear Extract Isoform Selectivity value.
One number for each entry.

MOLECULE: CCC1OC(=O)C(C)C(=O)C(C)C(OC2OC(C)CC(N(C)Cc3ccc(-c4cn(CCCCCCCCCC(=O)NO)nn4)cc3)C2O)C(C)(OC)CC(C)C2=NCCN3C(=O)OC1(C)C3C2C (centres unmarked) [Compound 56e]
RESULT NUMBER: 21.9

Dear colleague, could you send me HDAC8: Nuclear Extract Isoform Selectivity for each of the items below? Thanks.
1. CCC1OC(=O)C(C)C(=O)C(C)C(OC2OC(C)CC(N(C)Cc3ccc(-c4cn(CCCCCCCCC(=O)NO)nn4)cc3)C2O)C(C)(OC)CC(C)C2=NCCN3C(=O)OC1(C)C3C2C (centres unmarked) [Compound 56d]
2. CCC1OC(=O)C(C)C(=O)C(C)C(OC2OC(C)CC(N(C)Cc3ccc(-c4cn(CCCCCCC(=O)NO)nn4)cc3)C2O)C(C)(OC)CC(C)C2=NCCN3C(=O)OC1(C)C3C2C (centres unmarked) [Compound 56b]
3. CCC1OC(=O)C(C)C(=O)C(C)C(OC2OC(C)CC(N(C)Cc3ccc(-c4cn(CCCCCC(=O)NO)nn4)cc3)C2O)C(C)(OC)CC(C)C2=NCCN3C(=O)OC1(C)C3C2C (centres unmarked) [Compound 56a]
4. CCC1OC(=O)C(C)C(=O)C(C)C(OC2OC(C)CC(N(C)Cc3ccc(-c4cn(CCCCCCCC(=O)NO)nn4)cc3)C2O)C(C)(OC)CC(C)C2=NCCN3C(=O)OC1(C)C3C2C (centres unmarked) [Compound 56c]

1. 17.5
2. 528.7
3. 102.5
4. 18.3

----------
- TGT: HDAC6 (Homo sapiens (Human), UniProt Q9UBN7)
- Sequence (Q9UBN7 whole entry): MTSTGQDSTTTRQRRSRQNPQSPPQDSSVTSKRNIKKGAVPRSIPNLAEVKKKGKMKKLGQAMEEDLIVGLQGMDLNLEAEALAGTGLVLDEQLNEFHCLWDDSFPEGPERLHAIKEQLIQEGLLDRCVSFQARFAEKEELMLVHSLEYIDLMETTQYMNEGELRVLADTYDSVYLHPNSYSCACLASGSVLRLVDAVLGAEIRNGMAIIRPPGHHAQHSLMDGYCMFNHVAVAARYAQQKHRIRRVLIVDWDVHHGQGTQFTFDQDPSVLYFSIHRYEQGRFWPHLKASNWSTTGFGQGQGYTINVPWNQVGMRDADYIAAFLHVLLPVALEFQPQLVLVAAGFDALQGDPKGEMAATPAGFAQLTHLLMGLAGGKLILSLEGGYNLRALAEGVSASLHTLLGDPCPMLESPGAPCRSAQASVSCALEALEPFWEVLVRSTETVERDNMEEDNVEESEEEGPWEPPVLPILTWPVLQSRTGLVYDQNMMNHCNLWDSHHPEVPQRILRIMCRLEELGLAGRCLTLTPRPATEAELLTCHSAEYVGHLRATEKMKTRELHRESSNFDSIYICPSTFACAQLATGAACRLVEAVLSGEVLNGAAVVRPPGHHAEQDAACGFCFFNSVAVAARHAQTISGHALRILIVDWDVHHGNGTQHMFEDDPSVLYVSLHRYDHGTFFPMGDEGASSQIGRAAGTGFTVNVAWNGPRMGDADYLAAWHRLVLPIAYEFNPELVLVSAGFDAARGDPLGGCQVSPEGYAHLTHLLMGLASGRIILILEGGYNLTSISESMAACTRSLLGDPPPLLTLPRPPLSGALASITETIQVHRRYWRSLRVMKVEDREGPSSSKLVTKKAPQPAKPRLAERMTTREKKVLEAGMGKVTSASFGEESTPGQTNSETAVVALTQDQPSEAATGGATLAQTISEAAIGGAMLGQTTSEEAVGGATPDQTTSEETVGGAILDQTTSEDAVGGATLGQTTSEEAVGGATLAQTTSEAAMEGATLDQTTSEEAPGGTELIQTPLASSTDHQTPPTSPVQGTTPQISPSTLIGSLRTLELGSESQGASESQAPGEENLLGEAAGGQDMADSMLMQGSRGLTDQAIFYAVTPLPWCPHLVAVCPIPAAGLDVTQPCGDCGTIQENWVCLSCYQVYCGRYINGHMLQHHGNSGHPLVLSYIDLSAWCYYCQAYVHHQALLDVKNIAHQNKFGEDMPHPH
- ASSAY SUMMARY: SAMDI mass spectrometry HDAC inhibition assay
- Type: biochemical
- DETAILS: read-out: HDAC6 % inhibition
READOUT: inhibition at 10 µM (%)
One number for each entry, in %.

Before answering, review these 2 worked examples.
MOLECULE: Oc1cccn(Cc2cn(-c3ccccc3)nn2)c1=S [Compound 154a]
TGT: HDAC6 (Homo sapiens (Human), UniProt Q9UBN7)
inhibition at 10 µM (%): 41
//
MOLECULE: N#Cc1ccccc1-c1ccc(Cn2cccc(O)c2=O)cc1 [Compound 148c]
TGT: HDAC6 (Homo sapiens (Human), UniProt Q9UBN7)
inhibition at 10 µM (%): 5

// next entry
Indicate the recorded inhibition at 10 µM value for this molecule: Oc1cccn(CCn2cc(-c3ccccc3)nn2)c1=S [Compound 161]
14

Data origin, for the record: patent US8871728B2
